Reference source: patent US20230406883A1

# experimental.target: hNK3R (Homo sapiens, UniProt P29371)
# Construct: host or cells: COS-7
# Sequence (P29371 whole entry): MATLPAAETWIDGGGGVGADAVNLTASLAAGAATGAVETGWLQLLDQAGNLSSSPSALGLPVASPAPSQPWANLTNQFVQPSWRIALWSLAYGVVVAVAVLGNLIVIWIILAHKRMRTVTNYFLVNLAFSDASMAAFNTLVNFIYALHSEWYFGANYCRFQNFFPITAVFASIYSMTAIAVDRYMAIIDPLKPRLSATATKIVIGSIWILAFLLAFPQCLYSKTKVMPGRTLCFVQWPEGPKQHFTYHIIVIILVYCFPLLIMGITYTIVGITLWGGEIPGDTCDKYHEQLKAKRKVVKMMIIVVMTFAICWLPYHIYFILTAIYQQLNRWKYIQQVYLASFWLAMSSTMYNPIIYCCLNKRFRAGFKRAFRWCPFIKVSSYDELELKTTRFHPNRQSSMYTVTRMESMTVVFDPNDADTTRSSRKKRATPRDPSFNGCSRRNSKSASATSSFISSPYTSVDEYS
# protocol.summary: IP3 assay (inositol trisphosphate, 3H-myoinositol) in transiently transfected COS-7 cells
# Format: cell-based
# run.parameters: COS-7 cells; figure legends: percent of 10^-6 M NKA
Numbered stars: 1 amine (or outer) side, 2 acyl side, 3 side chain; on linkers, the order of the positions; unused ones are H or OH. Square brackets hold non-standard residues; d marks the D form. Peptide text beside a SMILES is read from it. * marks the point of attachment. C18 diacid = O=C(O)CCCCCCCCCCCCCCCCC(=O)*; γGlu = O=C(O)[C@H](CCC(=O)[*:2])N[*:1]; Stearoyl = CCCCCCCCCCCCCCCCCC(=O)*; NMeL = CN[C@@H](CC(C)C)C(=O)O; hSer = N[C@@H](CCO)C(=O)O; Nle = CCCC[C@H](N)C(=O)O; AEEA = NCCOCCOCC(=O)O
Each entry below carries its recorded hNK3, IP3 Efficacy.
A number alone suffices; assume %.

- CCCC[C@H](NC(=O)[C@H](CC(C)C)N(C)C(=O)CNC(=O)[C@H](CCCNC(=N)N)NC(=O)[C@H](Cc1ccc(O)cc1)NC(=O)[C@H](CCCCN)NC(=O)[C@H](CCC(=O)O)NC(=O)COCCOCCNC(=O)COCCOCCNC(=O)CC[C@H](NC(=O)CCCCCCCCCCCCCCCCC(=O)O)C(=O)O)C(N)=O [compound 314, *Glu;Lys;Tyr;Arg;Gly;NmLeu;Nle;NH2] ({C18 diacid-γGlu-AEEA-AEEA}-EKYRG[NMeL][Nle]-NH2): 0

Kindly review the next molecule as well.
Reported hNK3, IP3 Efficacy, molecule CCCCCCCCCCCCCCCCCC(=O)N[C@@H](CCC(=O)NCCOCCOCC(=O)NCCOCCOCC(=O)N[C@@H](CC(=O)O)C(=O)N[C@@H](CCCCN)C(=O)N[C@@H](Cc1ccc(O)cc1)C(=O)N[C@H](C(=O)NCC(=O)N(C)[C@@H](CC(C)C)C(=O)N[C@@H](CCOC)C(N)=O)C(C)C)C(=O)O [compound 391, *Asp;Lys;Tyr;Val;Gly;NmLeu;Metox;NH2] ({Stearoyl-γGlu-AEEA-AEEA}-DKYVG[NMeL][hSer](Me)-NH2) : ____ 100
